# experimentalTarget: UniProt:P52333
# Sequence (P52333 whole entry): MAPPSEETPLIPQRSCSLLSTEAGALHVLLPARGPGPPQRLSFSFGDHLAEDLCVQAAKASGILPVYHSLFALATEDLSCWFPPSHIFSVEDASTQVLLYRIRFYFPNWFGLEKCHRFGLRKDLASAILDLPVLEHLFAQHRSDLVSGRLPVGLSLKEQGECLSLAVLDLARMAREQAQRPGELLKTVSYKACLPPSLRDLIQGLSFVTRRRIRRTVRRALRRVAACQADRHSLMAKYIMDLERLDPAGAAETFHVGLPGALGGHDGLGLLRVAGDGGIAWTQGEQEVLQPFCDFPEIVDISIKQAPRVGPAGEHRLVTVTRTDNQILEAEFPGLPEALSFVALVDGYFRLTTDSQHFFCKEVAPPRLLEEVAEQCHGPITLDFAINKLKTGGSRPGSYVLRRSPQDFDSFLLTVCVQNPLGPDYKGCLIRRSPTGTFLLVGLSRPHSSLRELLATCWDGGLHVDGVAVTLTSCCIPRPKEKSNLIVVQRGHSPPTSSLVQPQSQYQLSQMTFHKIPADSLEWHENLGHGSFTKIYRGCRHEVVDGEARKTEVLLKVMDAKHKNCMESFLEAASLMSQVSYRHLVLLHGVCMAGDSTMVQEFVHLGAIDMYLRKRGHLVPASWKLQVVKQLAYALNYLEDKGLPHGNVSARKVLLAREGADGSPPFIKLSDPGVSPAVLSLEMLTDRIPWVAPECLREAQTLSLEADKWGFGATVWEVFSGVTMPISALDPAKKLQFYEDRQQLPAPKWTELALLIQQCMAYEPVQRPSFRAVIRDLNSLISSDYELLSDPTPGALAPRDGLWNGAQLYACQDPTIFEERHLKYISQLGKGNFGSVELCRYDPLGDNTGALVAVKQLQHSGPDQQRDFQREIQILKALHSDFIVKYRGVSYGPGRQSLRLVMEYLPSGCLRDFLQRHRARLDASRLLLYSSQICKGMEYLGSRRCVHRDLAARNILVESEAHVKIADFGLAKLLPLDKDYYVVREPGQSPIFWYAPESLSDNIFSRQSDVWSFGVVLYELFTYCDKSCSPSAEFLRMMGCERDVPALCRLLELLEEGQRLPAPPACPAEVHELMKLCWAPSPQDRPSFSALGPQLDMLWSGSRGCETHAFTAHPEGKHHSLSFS
pKd: −log10 of the molar value.
parameter: pKd

-- ask Give pKd (UniProt:P52333) of the following compound: "Cc1cc(Nc2nc(C(=O)c3ccc(F)cc3)nc3c(C)csc23)n[nH]1"
-- reply < 7.00

-- ask Give pKd (UniProt:P52333) of the following compound: "Fc1ccc(C(F)(F)c2nc(Nc3cc[nH]n3)c3sccc3n2)cc1"
-- reply 7.00 to 8.00

* * *

pKd: −log10 of the molar value.
Below are pKd values recorded for TYK2 (Homo sapiens, UniProt P29597).

Example compounds with recorded pKd:
{"compound": "CC(C)(C)c1cc2nc(C(=O)c3ccc(F)cc3)nc(Nc3cc[nH]n3)c2s1", "pKd": "< 7.00"}
{"compound": "Fc1ccc(C(F)(F)c2nc(Nc3cc[nH]n3)c3sccc3n2)cc1", "pKd": "≥ 8.00"}
{"compound": "Cc1cc(Nc2nc(C(F)(F)c3ccc(F)cc3)nc3ccsc23)n[nH]1", "pKd": "≥ 8.00"}

-- ask What measured pKd goes with "Cc1cc(Nc2nc(C(=O)c3ccc(F)cc3)nc3scc(C)c23)n[nH]1" ?
-- reply < 7.00

-- ask What measured pKd goes with Cc1cc(Nc2nc(C(O)c3ccc(F)cc3)nc3cc(C)sc23)n[nH]1 (racemic) ?
-- reply ≥ 8.00

-- ask What measured pKd goes with "Cc1cc(Nc2nc(C(F)(F)c3ccc(F)cc3)nc3cc(C(C)(C)C)sc23)n[nH]1" ?
-- reply < 7.00

-- ask What measured pKd goes with Cc1cc(Nc2nc(C(O)c3ccc(F)cc3)nc3ccsc23)n[nH]1 (racemic) ?
-- reply ≥ 8.00

-- ask What measured pKd goes with Cc1csc2c(Nc3cc[nH]n3)nc(C(O)c3ccc(F)cc3)nc12 (centres unmarked) ?
-- reply ≥ 8.00

* * *

# System: distinct kinases tested excluding mutant variants, typically 359 or 386 kinases
# assayExplanation: Kinase selectivity score from competition binding panel
# conditionSet: compound at 10 μM; fraction of kinases with inhibition of 90% or greater
# Experimental: Competition binding assays used herein were developed, validated and performed as described in Fabian et al., Nature Biotechnology 2005, 23,329-336. Kinases were produced as fusions to T7 phage (See, Fabian et al. or WO04/015142) or alternatively, the kinases were expressed in HEK-293 cells and subsequently tagged with DNA for PCR detection (See, WO08/005310). […] The kinase concentration in the eluates was measured by quantitative PCR. […] Kds were determined using eleven serial threefold dilutions. […]
parameter: S-Score: S(10) at 10 μM

Example molecules with recorded S-Score: S(10) at 10 μM:
{"molecule": "Cc1cc(Nc2nc(C(=O)c3ccc(F)cc3)nc3scc(C)c23)n[nH]1", "endpointResult": "A (A ≦ 0.3)"}
{"molecule": "Cc1cc(Nc2nc(C(F)(F)c3ccc(F)cc3)nc3cc(C(C)(C)C)sc23)n[nH]1", "endpointResult": "A (A ≦ 0.3)"}
{"molecule": "Cc1cc(Nc2nc(C(=O)c3ccc(F)cc3)nc3ccsc23)n[nH]1", "endpointResult": "A (A ≦ 0.3)"}
{"molecule": "Cc1csc2nc(C(=O)c3ccc(F)cc3)nc(Nc3cc[nH]n3)c12", "endpointResult": "A (A ≦ 0.3)"}

-- ask What measured S-Score: S(10) at 10 μM goes with "Fc1ccc(C(F)(F)c2nc(Nc3cc[nH]n3)c3ccsc3n2)cc1" ?
-- reply A (A ≦ 0.3)

-- ask What measured S-Score: S(10) at 10 μM goes with COC(c1ccc(F)cc1)c1nc(Nc2cc(C)[nH]n2)c2ccsc2n1 (racemic) ?
-- reply A (A ≦ 0.3)

-- ask What measured S-Score: S(10) at 10 μM goes with CC(C)(C)c1cc2nc(C(O)c3ccc(F)cc3)nc(Nc3cc[nH]n3)c2s1 (racemic) ?
-- reply A (A ≦ 0.3)

Hey, just so you know, these numbers are from patent US20130317045A1.
